This listing pairs binders with measured kon.
target: T1, human factor X (human, UniProt P00742 41-179; P00742 183-488); assay: SPR as in Example 10, human FX as analyte
T1 construct: Zymogen used as analyte in SPR; also called FX; Human FX (MW ~58 KDa)
T1 sequence (P00742 41-179, chain 1 of 2): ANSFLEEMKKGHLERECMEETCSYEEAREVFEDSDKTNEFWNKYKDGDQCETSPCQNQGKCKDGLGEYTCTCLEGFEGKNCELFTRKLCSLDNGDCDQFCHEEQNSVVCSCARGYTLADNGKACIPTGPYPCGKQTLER
T1 sequence (P00742 183-488, chain 2 of 2): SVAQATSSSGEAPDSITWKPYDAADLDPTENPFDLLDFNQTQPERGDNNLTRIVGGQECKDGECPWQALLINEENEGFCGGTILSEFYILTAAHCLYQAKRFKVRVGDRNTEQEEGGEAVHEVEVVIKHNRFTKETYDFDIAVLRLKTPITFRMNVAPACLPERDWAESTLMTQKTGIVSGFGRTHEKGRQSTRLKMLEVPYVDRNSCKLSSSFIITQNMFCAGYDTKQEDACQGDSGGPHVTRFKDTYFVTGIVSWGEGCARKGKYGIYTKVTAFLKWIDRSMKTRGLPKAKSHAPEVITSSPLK
READOUT KIND: kon

[
  {
    "BINDER": "TINA-0638.0128 (antibody, V domains shown, Monospecific IgG; position is IMGT numbering, not a count on the entry) VH: QVQLIQSGAEVKKPGASVKVSCKASRYSFTSYYMHWVRQAPGQGLEWMGIINPKSGSTSYAQKFQGRVTMTRDTSTSTVYMELSSLRSEDTAVYYCARDGYGSSSRCLMLWGQGTLVTVSS VL: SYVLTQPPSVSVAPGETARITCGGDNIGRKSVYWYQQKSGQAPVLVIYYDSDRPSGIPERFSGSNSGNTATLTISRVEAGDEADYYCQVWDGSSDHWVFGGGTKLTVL",
    "READOUT KIND": "kon",
    "OBSERVED VALUE": "69900 M⁻¹ s⁻¹"
  },
  {
    "BINDER": "TINA-0200.0128 (antibody, V domains shown, Monospecific IgG4PE) VH: QVQLVQSGAEVKKPGASVKVSCKASRYSFTSYYLHWVRQAPGQGLEWMGIINPKTGDTSYAQKFQGRVTMTRDTSTTTVYMELSSLRSEDTAVYYCARDGYGSSARCLQLWGQGTLVTVSS VL: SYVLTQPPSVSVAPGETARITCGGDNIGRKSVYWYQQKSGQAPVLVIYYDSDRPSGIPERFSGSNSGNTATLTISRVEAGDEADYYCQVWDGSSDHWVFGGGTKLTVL",
    "READOUT KIND": "kon",
    "OBSERVED VALUE": "44300 M⁻¹ s⁻¹"
  },
  {
    "BINDER": "TINA-0202.0128 (antibody, V domains shown, Monospecific IgG4PE) VH: QVQLIQSGAEVQKPGASVKVSCKASRYSFTSYYMHWVRQAPGQGLEWMGIINPKSGSTSYAQKFQGRVTMTRDTSTSTVYMELSSLRSEDTAVYYCARDGYGSSSRCLQLWGQGTLVTVSS VL: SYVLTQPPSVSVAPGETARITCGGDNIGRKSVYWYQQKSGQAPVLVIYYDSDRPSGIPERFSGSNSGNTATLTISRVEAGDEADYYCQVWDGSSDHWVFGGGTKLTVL",
    "READOUT KIND": "kon",
    "OBSERVED VALUE": "51300 M⁻¹ s⁻¹"
  }
]

Value source: patent US20220064327A1
